The measurements presented in this section are drawn from ChEMBL document CHEMBL1212843.

molecular target: Beta-secretase 1 (Homo sapiens, UniProt P56817); assay: Inhibition of BACE1 by FRET assay; design: concentration or dose not given beside the values; settings: concentration not given here
Sequence (P56817 whole entry): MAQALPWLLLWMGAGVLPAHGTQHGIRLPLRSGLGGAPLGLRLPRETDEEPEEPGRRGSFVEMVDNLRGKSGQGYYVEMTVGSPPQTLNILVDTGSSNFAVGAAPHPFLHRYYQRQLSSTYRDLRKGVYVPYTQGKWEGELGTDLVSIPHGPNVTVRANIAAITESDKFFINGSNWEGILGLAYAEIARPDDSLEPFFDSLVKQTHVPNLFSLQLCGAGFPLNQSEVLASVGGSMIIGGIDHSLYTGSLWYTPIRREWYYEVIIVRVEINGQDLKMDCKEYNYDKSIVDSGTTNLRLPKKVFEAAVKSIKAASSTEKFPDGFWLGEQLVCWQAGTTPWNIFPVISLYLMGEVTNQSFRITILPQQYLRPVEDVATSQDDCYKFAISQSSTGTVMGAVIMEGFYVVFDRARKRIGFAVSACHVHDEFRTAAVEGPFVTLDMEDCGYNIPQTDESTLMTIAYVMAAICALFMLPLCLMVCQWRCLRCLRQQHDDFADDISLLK
Threshold rule: inhibition greater than or equal to 70% is Criterion met; below that, Criterion not met.

compound_structure=O=C(Cc1ccccc1Cl)Nc1cc(Br)ccc1OCCN1CCCCC1 system_name="Beta-secretase 1 (Homo sapiens, UniProt P56817)" group="Criterion not met"
compound_structure=O=C(Cc1ccccc1Cl)Nc1cc(Br)ccc1OCCNC1CC1 system_name="Beta-secretase 1 (Homo sapiens, UniProt P56817)" group="Criterion met"
compound_structure=O=C(Cc1cccc([N+](=O)[O-])c1)Nc1cc(Br)ccc1OCCN1CCOCC1 system_name="Beta-secretase 1 (Homo sapiens, UniProt P56817)" group="Criterion not met"
compound_structure=O=C(Cc1ccccc1Cl)Nc1cc(Br)ccc1OCCNCCCCCO system_name="Beta-secretase 1 (Homo sapiens, UniProt P56817)" group="Criterion not met"
compound_structure=COc1cccc(CC(=O)Nc2cc(Br)ccc2OCCN2CCOCC2)c1 system_name="Beta-secretase 1 (Homo sapiens, UniProt P56817)" group="Criterion not met"
compound_structure=O=C(Cc1ccccc1Cl)Nc1cc(Br)ccc1OCCN1CCOCC1 system_name="Beta-secretase 1 (Homo sapiens, UniProt P56817)" group="Criterion not met"
compound_structure=NCCCNCCOc1ccc(Br)cc1NC(=O)Cc1ccccc1Cl system_name="Beta-secretase 1 (Homo sapiens, UniProt P56817)" group="Criterion met"
compound_structure=CCCCCCNCCOc1ccc(Br)cc1NC(=O)Cc1ccccc1Cl system_name="Beta-secretase 1 (Homo sapiens, UniProt P56817)" group="Criterion met"
compound_structure=O=C(Cc1ccccc1Cl)Nc1cc(Br)ccc1OCCNC1CCCCC1 system_name="Beta-secretase 1 (Homo sapiens, UniProt P56817)" group="Criterion met"
compound_structure=O=C(Cc1ccccc1)Nc1cc(Br)ccc1OCCN1CCOCC1 system_name="Beta-secretase 1 (Homo sapiens, UniProt P56817)" group="Criterion not met"
